Test system: HEK293
Assay: cytotoxicity IC50 (ATP content, uninfected cells); higher = less cytotoxic
Conditions: infection: none
Form field: cytotoxicity IC50 (one value per entry).

{"Compound": "Clc1ccc(CCC(Cn2ccnc2)Sc2c(Cl)cccc2Cl)cc1 (stereo not drawn)", "Operator symbol": "=", "cytotoxicity IC50, µM": 16}
{"Compound": "CCc1ccc(OCc2ccccc2C(=O)Nc2ccc3nc(C)cc(N)c3c2)cc1", "Operator symbol": "=", "cytotoxicity IC50, µM": 11}
{"Compound": "CC[C@@H]1C(=O)N(C)c2cnc(Nc3ccc(C(=O)NC4CCN(C)CC4)cc3OC)nc2N1C1CCCC1", "Operator symbol": ">", "cytotoxicity IC50, µM": 100}
{"Compound": "c1cnc2c(c1)ccc1cccnc12", "Operator symbol": "=", "cytotoxicity IC50, µM": 3.6}
{"Compound": "CC(C)[C@]12O[C@H]1[C@@H]1O[C@]13[C@]1(O[C@H]1C[C@H]1C4=C(CC[C@@]13C)C(=O)OC4)[C@@H]2O", "Operator symbol": ">", "cytotoxicity IC50, µM": 100}
{"Compound": "C[n+]1cc2c3c(ccc2c2ccc4cc5c(cc4c21)OCO5)OCO3", "Operator symbol": "=", "cytotoxicity IC50, µM": 6.4}
{"Compound": "S=c1nc[nH]c2nc[nH]c12", "Operator symbol": "=", "cytotoxicity IC50, µM": 6.5}
{"Compound": "O[C@@H](CNC[C@H](O)[C@H]1CCc2cc(F)ccc2O1)[C@@H]1CCc2cc(F)ccc2O1", "Operator symbol": ">", "cytotoxicity IC50, µM": 100}
{"Compound": "COc1cccc2nc(-c3cccs3)nc(NN3C(=O)C=C(C)C3=O)c12", "Operator symbol": "=", "cytotoxicity IC50, µM": 50}
{"Compound": "CCCOc1ccc2[nH]c(NC(=O)OC)nc2c1", "Operator symbol": "=", "cytotoxicity IC50, µM": 86}
{"Compound": "CN(C)c1ccc(C(=C2C=CC(=[N+](C)C)C=C2)c2ccccc2)cc1", "Operator symbol": "=", "cytotoxicity IC50, µM": 1.8}
{"Compound": "COc1cc(NS(C)(=O)=O)ccc1Nc1c2ccccc2nc2ccccc12", "Operator symbol": "=", "cytotoxicity IC50, µM": 70}
{"Compound": "CC[C@@H](C(=O)[C@@H](C)[C@@H](O)[C@H](C)[C@@H]1O[C@@H]([C@@H](CC)C(=O)O)CC[C@@H]1C)[C@H]1O[C@]2(C=C[C@@H](O)[C@]3(CC[C@@](C)([C@H]4CC[C@](O)(CC)[C@H](C)O4)O3)O2)[C@H](C)C[C@@H]1C", "Operator symbol": "=", "cytotoxicity IC50, µM": 27}
{"Compound": "CC[C@]1(O)C[C@@H]2CN(CCc3c([nH]c4ccccc34)[C@@](C(=O)OC)(c3cc4c(cc3OC)N(C)[C@H]3[C@@](O)(C(N)=O)[C@H](O)[C@]5(CC)C=CCN6CC[C@]43[C@@H]65)C2)C1", "Operator symbol": ">", "cytotoxicity IC50, µM": 100}
{"Compound": "CC(C)(C)c1cnc(CSc2cnc(NC(=O)C3CCNCC3)s2)o1", "Operator symbol": ">", "cytotoxicity IC50, µM": 100}
{"Compound": "CCc1c2c(nc3ccc(OC(=O)N4CCC(N5CCCCC5)CC4)cc13)-c1cc3c(c(=O)n1C2)COC(=O)[C@]3(O)CC", "Operator symbol": ">", "cytotoxicity IC50, µM": 100}
{"Compound": "C=CCn1c(=O)c2cnc(Nc3ccc(N4CCN(C)CC4)cc3)nc2n1-c1cccc(C(C)(C)O)n1", "Operator symbol": ">", "cytotoxicity IC50, µM": 100}
{"Compound": "Nc1c2ccccc2nc2ccccc12", "Operator symbol": "=", "cytotoxicity IC50, µM": 100}

====

System: HEK293
Assay: cytotoxicity IC50 (ATP content, uninfected cells); higher = less cytotoxic
Conditions: infection: none
Everything with cytotoxicity IC50 lower than 30 µM is NOT MET; everything else, including exactly 30 µM, is MET.

{"Compound": "Cc1cc(Nc2cc(NC(=O)c3c(Cl)cccc3Cl)ccn2)nc(N)n1", "Assayed target": "HEK293", "Class": "MET"}
{"Compound": "CC(C)c1nn(-c2c(Cl)cccc2Cl)c2nc(Cc3ccc(OCCO)cc3)[nH]c(=O)c12", "Assayed target": "HEK293", "Class": "MET"}
{"Compound": "Oc1ccc(-c2ccc(-c3cc(Nc4cccc(CNC5CC5)c4)n[nH]3)cc2)c(O)c1", "Assayed target": "HEK293", "Class": "NOT MET"}
{"Compound": "CCC[C@@H](C=O)NC(=O)[C@H](CC(C)C)NC(=O)[C@H](CC(C)C)NC(=O)OCc1ccccc1", "Assayed target": "HEK293", "Class": "NOT MET"}
{"Compound": "CCC(=O)N1CCN(c2ccc(-n3c(=O)ccc4cnc5ccc(-c6cnc7ccccc7c6)cc5c43)cc2C(F)(F)F)CC1", "Assayed target": "HEK293", "Class": "NOT MET"}
{"Compound": "COC(=O)Nc1nc2cc(C(=O)c3ccccc3)ccc2[nH]1", "Assayed target": "HEK293", "Class": "MET"}
{"Compound": "C#CCC(Cc1cnc2nc(N)nc(N)c2n1)c1ccc(C(=O)N[C@@H](CCC(=O)O)C(=O)O)cc1 (some centres undefined)", "Assayed target": "HEK293", "Class": "NOT MET"}
{"Compound": "CCc1c2c(nc3ccc(O)cc13)-c1cc3c(c(=O)n1C2)COC(=O)[C@]3(O)CC", "Assayed target": "HEK293", "Class": "MET"}
{"Compound": "Cn1cc(-c2[nH]c3cc(NC(=O)[C@H](N)C4CCCCC4)cc4c3c2C=NNC4=O)cn1", "Assayed target": "HEK293", "Class": "MET"}

====

# maximal inhibition values compiled below
Tested on: HEK293
Experiment: maximal inhibition of ZIKV NS1 production (% inhibition); higher = stronger antiviral effect

{"Structure smiles": "Cn1c(CCCC(=O)O)nc2cc(N(CCCl)CCCl)ccc21", "maximal inhibition": 92}
{"Structure smiles": "COC(=O)Nc1nc2cc(C(=O)c3cccs3)ccc2[nH]1", "maximal inhibition": 68}
{"Structure smiles": "C[n+]1cc2c3c(ccc2c2ccc4cc5c(cc4c21)OCO5)OCO3", "maximal inhibition": 96}
{"Structure smiles": "CO/C1=C\\C(C)=C\\[C@@H](C)[C@@H](O)[C@@H](C)C/C(C)=C/C=C/[C@H](OC)[C@@H]([C@@H](C)[C@@H](O)[C@H](C)[C@@]2(O)C[C@@H](O)[C@H](C)[C@@H](C(C)C)O2)OC1=O", "maximal inhibition": 101}

====

System: HEK293
Experiment: IC50 for inhibition of ZIKV NS1 production
# IC50 listing for each entry below
Property label: IC50 (µM)

{"Structure smiles": "CCN(CC)CCNC(=O)c1ccc2nc(-c3ccccc3)c(-c3ccc(CN4CCC(n5c(=O)[nH]c6ccccc65)CC4)cc3)nc2c1", "Reported result": 60}
{"Structure smiles": "c1cnc2c(c1)ccc1cccnc12", "Reported result": 14}
{"Structure smiles": "CN[C@@H]1C[C@H]2O[C@@](C)([C@@H]1OC)n1c3ccccc3c3c4c(c5c6ccccc6n2c5c31)C(=O)N[C@H]4O", "Reported result": 0.76}
{"Structure smiles": "C#C[C@]1(OC(C)=O)CC[C@H]2[C@@H]3CCC4=C/C(=N/O)CC[C@@H]4[C@H]3CC[C@@]21CC", "Reported result": 43}

====

Reported IC50 values follow for various compounds
Test system: HEK293
Assay: IC50 for inhibition of ZIKV NS1 production
Property label: IC50 (nM)

{"Compound": "COc1cc([C@@H]2c3cc4c(cc3[C@@H](O[C@@H]3O[C@@H]5CO[C@@H](c6cccs6)O[C@H]5[C@H](O)[C@H]3O)[C@H]3COC(=O)[C@H]23)OCO4)cc(OC)c1O", "Reported result": 1200}
{"Compound": "C#CCC(Cc1cnc2nc(N)nc(N)c2n1)c1ccc(C(=O)N[C@@H](CCC(=O)O)C(=O)O)cc1 (some centres not stated)", "Reported result": 450}
{"Compound": "Nc1c2ccccc2nc2ccccc12", "Reported result": 21000}
{"Compound": "COc1cccc2c1C(=O)c1c(O)c3c(c(O)c1C2=O)C[C@@](O)(C(C)=O)C[C@@H]3O[C@H]1C[C@H](N)[C@H](O)[C@H](C)O1", "Reported result": 540}
{"Compound": "CC1(C(=O)O)C2CCC(O2)C1(C)C(=O)O (configuration not stated)", "Reported result": 2600}
{"Compound": "CNc1ccc2oc(C[C@H]3O[C@@]4(CC[C@H]3C)O[C@H]([C@H](C)C(=O)c3ccc[nH]3)[C@H](C)C[C@H]4C)nc2c1C(=O)O", "Reported result": 6200}
{"Compound": "C=CC(=O)N1CCc2ccc(-n3c(=O)ccc4cnc5ccc(-c6cnn(C)c6)cc5c43)cc21", "Reported result": 13000}
{"Compound": "O=c1[nH]c2ccc(Cl)cc2c(N[C@@H]2CN3CCC2CC3)c1-c1nc2ccccc2[nH]1", "Reported result": 410}
{"Compound": "Nc1ncn([C@@H]2O[C@H](CO)[C@@H](O)[C@H]2O)c(=O)n1", "Reported result": 44000}
{"Compound": "CN1CC[C@H](c2c(O)cc(O)c3c(=O)cc(-c4ccccc4Cl)oc23)[C@H](O)C1", "Reported result": 1200}
{"Compound": "CNC1CCC(N(Cc2cccc(-c3ccncc3)c2)C(=O)c2sc3ccccc3c2Cl)CC1 (configuration not stated)", "Reported result": 49000}
{"Compound": "COc1cccc2nc(-c3cccs3)nc(NN3C(=O)C=C(C)C3=O)c12", "Reported result": 11000}
{"Compound": "COc1cc2nc(N3CCN(C(=O)c4ccco4)CC3)nc(N)c2cc1OC", "Reported result": 18000}
{"Compound": "CC[C@@]1([C@@H]2O[C@@H]([C@H]3O[C@@](O)(CO)[C@H](C)C[C@@H]3C)C[C@@H]2C)CC[C@H]([C@]2(C)CC[C@]3(C[C@H](O)[C@@H](C)[C@@H]([C@@H](C)[C@@H](OC)[C@H](C)C(=O)O)O3)O2)O1", "Reported result": 2800}
{"Compound": "CC[C@@H]1C(=O)N(C)c2cnc(Nc3ccc(C(=O)N[C@H]4CC[C@H](N5CCN(CC6CC6)CC5)CC4)cc3OC)nc2N1C(C)C", "Reported result": 65}
{"Compound": "CC[C@@H]([C@H](C)O)n1ncn(-c2ccc(N3CCN(c4ccc(OC[C@@H]5CO[C@@](Cn6cncn6)(c6ccc(F)cc6F)C5)cc4)CC3)cc2)c1=O", "Reported result": 18000}
{"Compound": "CC[C@@]1(O)C(=O)OCc2c1cc1n(c2=O)Cc2cc3ccccc3nc2-1", "Reported result": 26}
